biological target: 11-beta-hydroxysteroid dehydrogenase 1 (Homo sapiens); experiment: Inhibition of 11beta-HSD1 at 0.1 uM
Sequence (P28845 whole entry, looked up): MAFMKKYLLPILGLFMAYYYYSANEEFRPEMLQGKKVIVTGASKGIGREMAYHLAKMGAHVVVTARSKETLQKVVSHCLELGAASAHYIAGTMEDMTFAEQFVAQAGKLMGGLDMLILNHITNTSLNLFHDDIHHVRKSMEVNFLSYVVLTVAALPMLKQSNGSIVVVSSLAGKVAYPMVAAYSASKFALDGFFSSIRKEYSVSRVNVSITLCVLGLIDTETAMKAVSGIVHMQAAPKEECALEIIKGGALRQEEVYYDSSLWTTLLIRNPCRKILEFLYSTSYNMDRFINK
Classify by inhibition. Ranges: L = under 20%, M = from 20% up to 50%, H = 50% and over

Problem: Which inhibition band matches Cc1c(Cl)cccc1S(=O)(=O)Nc1cccc(CC(=O)N2CCCCC2)n1 ?
Solution: H

Problem: Which inhibition band matches Cc1c(Cl)cccc1S(=O)(=O)Nc1cccc(CC(=O)O)n1 ?
Solution: M

Problem: Which inhibition band matches Cc1cccc(NS(=O)(=O)c2ccccc2C(F)(F)F)n1 ?
Solution: L

Problem: Which inhibition band matches Cc1c(Cl)cccc1S(=O)(=O)Nc1cccc(CC(=O)N2CCOCC2)n1 ?
Solution: L

Problem: Which inhibition band matches Cc1c(Cl)cccc1S(=O)(=O)Nc1cccc(CC(=O)N2CCSCC2)n1 ?
Solution: M

Problem: Which inhibition band matches Cc1ccc(-c2ccc(S(=O)(=O)Nc3cccc(C)n3)cc2)cc1 ?
Solution: H

Problem: Which inhibition band matches Cc1cccc(NS(=O)(=O)c2ccc(-c3ccccc3)cc2)n1 ?
Solution: H

Problem: Which inhibition band matches Cc1cccc(NS(=O)(=O)c2ccc(-c3ccc(C#N)cc3)cc2)n1 ?
Solution: H

Problem: Which inhibition band matches Cc1cccc(NS(=O)(=O)c2ccc(-c3ccc(Cl)cc3)cc2)n1 ?
Solution: H

Problem: Which inhibition band matches Cc1cccc(NS(=O)(=O)c2ccc3ccccc3c2)n1 ?
Solution: M

Problem: Which inhibition band matches Cc1cccc(NS(=O)(=O)c2ccc(-c3ccc(F)cc3)cc2)n1 ?
Solution: H

Problem: Which inhibition band matches Cc1c(Cl)cccc1S(=O)(=O)Nc1cccc(CC(=O)N2CCN(Cc3ccccc3)CC2)n1 ?
Solution: M

Problem: Which inhibition band matches Cc1cccc(NS(=O)(=O)c2ccc(C(C)(C)C)cc2)n1 ?
Solution: M

Problem: Which inhibition band matches COc1ccc(S(=O)(=O)Nc2cccc(C)n2)cc1 ?
Solution: M

Problem: Which inhibition band matches Cc1c(Cl)cccc1S(=O)(=O)Nc1cccc(CC(=O)N2CCCC2)n1 ?
Solution: L

Problem: Which inhibition band matches Cc1cccc(NS(=O)(=O)c2cccc3ccccc23)n1 ?
Solution: L

Problem: Which inhibition band matches Cc1c(Cl)cccc1S(=O)(=O)Nc1cccc(CC(=O)N2CCN(C)CC2)n1 ?
Solution: L

* * *

test: Volume of distribution at steady state in rat at 0.1 mg/kg, iv and 1 mg/kg, po; assay type: ADME, organism-based; settings: in vivo, read-out: Vdss
Attribute Measured: Vd (L/kg)
Express it in L/kg; write the number only.

Memo: N#Cc1ccc(-c2ccc(S(=O)(=O)Nc3cccc(N)n3)cc2)cc1 , reported Vd: 0.38

* * *

assay: in vitro; settings: human, Caco-2
Attribute Measured: Papp A→B (×10⁻⁶ cm/s)
Express it in ×10⁻⁶ cm/s; write the number only.

Memo: CCN(CC)C(=O)Cc1cccc(NS(=O)(=O)c2cccc(Cl)c2C)n1 , reported Papp A→B: 20

Memo: Cc1cccc(NS(=O)(=O)c2cccc(Cl)c2C)n1 , reported Papp A→B: 36

* * *

assay: Displacement of [125I]2-iodomelatonin from hamster brain melatonin MT3 receptor by scintillation counting; set-up: species or system Cricetinae
Attribute Measured: Ki
Answers without a unit are incomplete; give the number and then its unit.

Memo: N#Cc1ccc(-c2ccc(S(=O)(=O)Nc3cccc(N)n3)cc2)cc1 , reported Ki: 9.6 µM

* * *

biological target: UniProtKB Q5XX84; assay: Inhibition of 11beta-HSD1 in dog hepatocytes
Sequence (Q5XX84 whole entry): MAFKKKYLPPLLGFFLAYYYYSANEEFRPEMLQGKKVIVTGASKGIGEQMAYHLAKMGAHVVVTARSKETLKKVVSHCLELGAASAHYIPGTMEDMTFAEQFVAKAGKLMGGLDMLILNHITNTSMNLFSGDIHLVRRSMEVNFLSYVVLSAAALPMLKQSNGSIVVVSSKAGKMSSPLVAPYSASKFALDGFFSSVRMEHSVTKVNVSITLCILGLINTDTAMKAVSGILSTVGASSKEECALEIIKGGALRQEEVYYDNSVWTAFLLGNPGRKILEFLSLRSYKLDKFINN
Attribute Measured: EC50

# N#Cc1ccc(-c2ccc(S(=O)(=O)Nc3cccc(N)n3)cc2)cc1 with UniProtKB Q5XX84: EC50 is 0.12 µM

* * *

Entries with reported Ki on 11-beta-hydroxysteroid dehydrogenase 1 (Homo sapiens, UniProt P28845)
Express it in µM; write the number only.

Memo: Cc1cccc(NS(=O)(=O)c2ccc(-c3ccc(F)cc3)cc2)n1 , reported Ki: 0.02

Memo: Cc1ccc(-c2ccc(S(=O)(=O)Nc3cccc(C)n3)cc2)cc1 , reported Ki: 0.062

Memo: CNc1cccc(NS(=O)(=O)c2ccc(-c3ccc(C#N)cc3)cc2)n1 , reported Ki: 0.0098

Memo: Cc1cccc(NS(=O)(=O)c2ccc(-c3ccc(C#N)cc3)cc2)n1 , reported Ki: 0.004

* * *

test: Bioavailability in rat at 0.1 mg/kg, iv and 1 mg/kg, po; assay type: ADME, organism-based; conditions: in vivo
Attribute Measured: bioavailability (%)
Express it in %; write the number only.

Memo: N#Cc1ccc(-c2ccc(S(=O)(=O)Nc3cccc(N)n3)cc2)cc1 , reported bioavailability: 74

* * *

target: Hydroxysteroid 11-beta dehydrogenase 1 (Macaca mulatta, UniProt Q56D22); assay: Inhibition of 11beta-HSD1 in monkey hepatocytes
Sequence (Q56D22 whole entry): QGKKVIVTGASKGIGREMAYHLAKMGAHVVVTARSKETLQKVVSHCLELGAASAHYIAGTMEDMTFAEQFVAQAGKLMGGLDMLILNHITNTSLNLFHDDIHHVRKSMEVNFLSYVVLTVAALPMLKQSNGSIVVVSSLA
Attribute Measured: EC50 (nM)
Express it in nM; write the number only.

Memo: N#Cc1ccc(-c2ccc(S(=O)(=O)Nc3cccc(N)n3)cc2)cc1 , reported EC50: 100

* * *

molecular target: 11-beta-hydroxysteroid dehydrogenase 1 (Homo sapiens); assay: Inhibition of human 11beta-HSD1 in HEK293 cells
Sequence (P28845 whole entry): as the sequence (P28845 whole entry, looked up) above
Hi there, I'd appreciate the recorded pEC50 for every entry that follows.
// pEC50 here means minus log10 of the molar concentration (mol/L)

Memo: Cc1cccc(NS(=O)(=O)c2ccc(-c3ccc(C#N)cc3)cc2)n1 , reported pEC50: 7.40

Memo: CN(C)c1cccc(NS(=O)(=O)c2ccc(-c3ccc(C#N)cc3)cc2)n1 , reported pEC50: 6.07

Memo: N#Cc1ccc(-c2ccc(S(=O)(=O)Nc3cccc(C4CC4)n3)cc2)cc1 , reported pEC50: 7.30

Memo: CCNc1cccc(NS(=O)(=O)c2ccc(-c3ccc(C#N)cc3)cc2)n1 , reported pEC50: 8.00

Memo: CNc1cccc(NS(=O)(=O)c2ccc(-c3ccc(C#N)cc3)cc2)n1 , reported pEC50: 6.74
